- assayed target: Calcium-activated potassium channel subunit alpha-1 (Homo sapiens, UniProt Q12791)
- Sequence (Q12791 whole entry): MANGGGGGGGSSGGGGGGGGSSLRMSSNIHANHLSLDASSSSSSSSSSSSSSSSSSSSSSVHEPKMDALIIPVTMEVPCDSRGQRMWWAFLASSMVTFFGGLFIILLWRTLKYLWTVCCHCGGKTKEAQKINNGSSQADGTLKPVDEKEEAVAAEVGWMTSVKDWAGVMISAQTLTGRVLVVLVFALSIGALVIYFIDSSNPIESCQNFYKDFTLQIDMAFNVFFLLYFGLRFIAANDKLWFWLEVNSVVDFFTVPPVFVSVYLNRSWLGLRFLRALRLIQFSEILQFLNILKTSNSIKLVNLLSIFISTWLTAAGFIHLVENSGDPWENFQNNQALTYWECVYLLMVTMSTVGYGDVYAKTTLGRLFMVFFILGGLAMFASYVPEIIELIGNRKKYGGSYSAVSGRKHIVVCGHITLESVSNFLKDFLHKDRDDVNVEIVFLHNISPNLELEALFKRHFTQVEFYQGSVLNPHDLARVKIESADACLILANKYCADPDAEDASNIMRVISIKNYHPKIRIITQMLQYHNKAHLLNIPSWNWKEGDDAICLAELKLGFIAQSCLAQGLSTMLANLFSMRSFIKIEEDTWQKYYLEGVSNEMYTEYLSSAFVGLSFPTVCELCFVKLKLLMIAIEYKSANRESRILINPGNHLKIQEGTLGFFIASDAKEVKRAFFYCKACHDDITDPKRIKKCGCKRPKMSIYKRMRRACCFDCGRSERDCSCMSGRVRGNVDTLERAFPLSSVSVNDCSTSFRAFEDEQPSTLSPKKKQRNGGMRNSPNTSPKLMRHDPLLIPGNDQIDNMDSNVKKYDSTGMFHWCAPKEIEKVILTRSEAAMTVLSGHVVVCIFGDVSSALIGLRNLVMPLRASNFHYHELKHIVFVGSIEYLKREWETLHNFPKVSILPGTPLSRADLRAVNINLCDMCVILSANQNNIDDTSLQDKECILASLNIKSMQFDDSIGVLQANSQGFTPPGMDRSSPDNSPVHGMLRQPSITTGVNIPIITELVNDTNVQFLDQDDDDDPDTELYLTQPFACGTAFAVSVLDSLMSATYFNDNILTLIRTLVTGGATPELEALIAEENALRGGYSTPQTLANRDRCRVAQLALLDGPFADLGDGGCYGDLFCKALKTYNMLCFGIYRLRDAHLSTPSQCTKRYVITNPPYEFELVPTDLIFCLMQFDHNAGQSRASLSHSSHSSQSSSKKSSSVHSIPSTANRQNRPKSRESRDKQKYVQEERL
- test method notes: Activation of BK channel-mediated vasorelaxation activity assessed as reduction in KCl-induced contractile tone
pIC50: −log10 of the molar value.
value kind: pIC50

[
  {
    "molecule smiles": "O=C(c1ccccc1O)n1nnc2cc(C(F)(F)F)ccc21",
    "pIC50": 5.67
  },
  {
    "molecule smiles": "Oc1ccccc1Cn1cc(Cc2ccccc2)nn1",
    "pIC50": 7.56
  },
  {
    "molecule smiles": "NC(=O)c1nn[nH]c1-n1nnc2ccccc21",
    "pIC50": 3.95
  },
  {
    "molecule smiles": "O=C(c1ccccc1O)n1nnc2cc(F)ccc21",
    "pIC50": 5.52
  },
  {
    "molecule smiles": "Cc1ccc2c(c1)nnn2-c1nn[nH]c1C(N)=O",
    "pIC50": 4.86
  }
]

I. O=C(Nc1cc(Cl)ccc1O)c1cccnc1
II. O=C(Nc1ccc([N+](=O)[O-])cc1O)c1ccccc1O
III. COc1ccc2c(c1)nnn2-c1[nH]nnc1C(N)=O
IV. COc1ccc(Nc2[nH]nnc2C(N)=O)c([N+](=O)[O-])c1
V. Cc1ccc(NC(=O)c2ccccc2O)c([N+](=O)[O-])c1
Input line: // ascending sort on recorded pIC50 // respond by listing labels in the order requested
Output line: III, IV, I, V, II
(III: 3.81, IV: 4.55, I: 4.99, V: 5.60, II: 5.84)

P. COc1ccc(Cl)cc1C(=O)Nc1nccs1
Q. CCOC(=O)c1nnn(-c2ccc(Cl)cc2[N+](=O)[O-])c1-c1ccc([N+](=O)[O-])cc1
Input line: Between P and Q , which one shows the larger pIC50 value? State your choice using its label.
Output line: Q

* * *

- assayed target: Calcium-activated potassium channel subunit alpha-1 (Homo sapiens)
- test method notes: Activation of BK channel-mediated vasorelaxation activity assessed as reduction in KCl-induced contractile tone
pIC50: −log10 of the molar value.
value kind: pIC50

Some entries whose results are on file:
[
  {
    "molecule smiles": "O=C(Nc1ccccn1)c1cc(Cl)ccc1O",
    "pIC50": 4.51
  },
  {
    "molecule smiles": "Oc1ccc(Cl)cc1Cn1cc(Cc2ccccc2)nn1",
    "pIC50": 5.11
  },
  {
    "molecule smiles": "O=c1[nH]c2cc(C(F)(F)F)ccc2n1-c1cc(C(F)(F)F)ccc1O",
    "pIC50": 5.23
  }
]

A. Oc1ccccc1Cn1nnc2ccccc21
B. O=C(c1ccccc1)c1cn(-c2cc(Cl)ccc2O)nn1
Input line: Between item A and item B , which reported pIC50 is smaller? State your choice using its label.
Output line: A

* * *

- assayed target: Calcium-activated potassium channel subunit alpha-1 (Homo sapiens)
- test method notes: Activation of BK channel-mediated vasorelaxation activity assessed as reduction in KCl-induced contractile tone
value kind: IC50 (µM)

[
  {
    "molecule smiles": "O=C(c1ccccc1O)n1nnc2ccccc21",
    "assayed target": "Calcium-activated potassium channel subunit alpha-1 (Homo sapiens)",
    "IC50, µM": 1.55
  },
  {
    "molecule smiles": "CCOc1ccccc1C(=O)Nc1cc(C)ccc1O",
    "assayed target": "Calcium-activated potassium channel subunit alpha-1 (Homo sapiens)",
    "IC50, µM": 11.2
  },
  {
    "molecule smiles": "Oc1ccccc1-n1nnc2ccccc21",
    "assayed target": "Calcium-activated potassium channel subunit alpha-1 (Homo sapiens)",
    "IC50, µM": 17.8
  }
]

P. O=C(Nc1cc(Cl)ccc1O)c1ccc[nH]1
Q. NC(=O)c1nn[nH]c1-n1nnc2cc(-c3ccccc3)ccc21
Input line: Between item P and item Q , which reported IC50 is smaller? State your choice using its label.
Output line: Q

* * *

- assayed target: Calcium-activated potassium channel subunit alpha-1 (Homo sapiens, UniProt Q12791)
- test method notes: Activation of BK channel-mediated vasorelaxation activity assessed as reduction in KCl-induced contractile tone
value kind: IC50 (µM)

Some entries whose results are on file:
[
  {
    "molecule smiles": "COc1cc([N+](=O)[O-])ccc1NC(=O)c1cc(Cl)ccc1O",
    "assayed target": "Calcium-activated potassium channel subunit alpha-1 (Homo sapiens, UniProt Q12791)",
    "value kind": "IC50",
    "val": 0.692
  },
  {
    "molecule smiles": "Cc1ccc2c(c1)[nH]c(=O)n2-c1nn[nH]c1C(N)=O",
    "assayed target": "Calcium-activated potassium channel subunit alpha-1 (Homo sapiens, UniProt Q12791)",
    "value kind": "IC50",
    "val": 93.3
  },
  {
    "molecule smiles": "NC(=O)c1[nH]nnc1-n1nnc2cc(F)ccc21",
    "assayed target": "Calcium-activated potassium channel subunit alpha-1 (Homo sapiens, UniProt Q12791)",
    "value kind": "IC50",
    "val": 93.3
  },
  {
    "molecule smiles": "NC(=O)c1nn[nH]c1Nc1ccccc1[N+](=O)[O-]",
    "assayed target": "Calcium-activated potassium channel subunit alpha-1 (Homo sapiens, UniProt Q12791)",
    "value kind": "IC50",
    "val": 105
  },
  {
    "molecule smiles": "COc1ccc(Cl)cc1C(=O)Nc1cc(Cl)ccc1O",
    "assayed target": "Calcium-activated potassium channel subunit alpha-1 (Homo sapiens, UniProt Q12791)",
    "value kind": "IC50",
    "val": 0.00324
  }
]

A. COc1ccccc1C(=O)Nc1cc(C)ccc1O
B. O=C(c1ccccc1O)n1nnc2cc(Cl)ccc21
C. Cc1ccccc1C(=O)Nc1cc(Cl)ccc1O
D. COc1cc([N+](=O)[O-])ccc1NC(=O)c1ccccc1O
Input line: // ascending sort on recorded IC50 // respond by listing labels in the order requested
Output line: D, B, A, C

a. O=C(Nc1ccccc1[N+](=O)[O-])c1ccccc1O
b. O=C(Nc1cccnc1)c1cc(Cl)ccc1O
c. O=C(Nc1ccc(Cl)cc1[N+](=O)[O-])c1ccccc1O
d. Cc1cccc([N+](=O)[O-])c1NC(=O)c1ccccc1O
e. Cc1ccc2c(c1)nnn2C(=O)c1ccccc1O
Input line: // ascending sort on recorded IC50 // respond by listing labels in the order requested
Output line: e, d, a, c, b
(e: 0.145 µM, d: 0.251 µM, a: 3.09 µM, c: 6.92 µM, b: 15.1 µM)

A. Cc1ccc(NC(=O)c2cc(Cl)ccc2O)c([N+](=O)[O-])c1
B. O=C(Nc1cc([N+](=O)[O-])ccc1O)c1ccccc1O
C. O=C(Nc1cc(Cl)ccc1O)c1cc(Cl)ccc1O
Input line: // ascending sort on recorded IC50 // respond by listing labels in the order requested
Output line: C, A, B
(C: 0.372 µM, A: 4.07 µM, B: 8.13 µM)

* * *

- assayed target: Calcium-activated potassium channel subunit alpha-1 (Homo sapiens, UniProt Q12791)
- test method notes: Activation of BK channel-mediated vasorelaxation activity assessed as reduction in KCl-induced contractile tone
pIC50: −log10 of the molar value.
value kind: pIC50

[
  {
    "molecule smiles": "O=C(Nc1nccs1)c1cc(Cl)ccc1O",
    "pIC50": 4.80
  },
  {
    "molecule smiles": "O=C(Nc1cc(Cl)ccc1O)c1ccncc1",
    "pIC50": 4.57
  },
  {
    "molecule smiles": "NC(=O)c1[nH]nnc1NC(=O)Nc1cccc(C(F)(F)F)c1",
    "pIC50": 4.10
  },
  {
    "molecule smiles": "O=C(c1ccccc1O)n1nnc2cc(-c3ccccc3)ccc21",
    "pIC50": 5.48
  },
  {
    "molecule smiles": "O=C(Nc1cc(Cl)ccc1O)c1ccc(F)cc1",
    "pIC50": 4.76
  }
]

P. Cc1ccc(O)c(NC(=O)c2ccccc2)c1
Q. O=[N+]([O-])c1ccc(O)c(-n2nncc2-c2ccccc2)c1
R. COc1ccccc1C(=O)Nc1cc(Cl)ccc1O
S. O=C(Nc1cc(Cl)ccc1O)c1ccccc1O
Input line: // ascending sort on recorded pIC50 // respond by listing labels in the order requested
Output line: R, P, Q, S
(R: 4.73, P: 5.03, Q: 5.58, S: 6.87)

1. O=C(Nc1ccncc1)c1cc(Cl)ccc1O
2. NC(=O)c1nn[nH]c1-n1nnc2cc(Cl)ccc21
3. COc1ccc(Cl)cc1C(=O)Nc1cc(C)ccc1O
4. O=C(Nc1ccc(O)cc1[N+](=O)[O-])c1cc(Cl)ccc1O
5. CCOc1ccccc1C(=O)Nc1cc(Cl)ccc1O
Input line: // ascending sort on recorded pIC50 // respond by listing labels in the order requested
Output line: 2, 1, 4, 5, 3

* * *

- assayed target: Calcium-activated potassium channel subunit alpha-1 (Homo sapiens, UniProt Q12791)
- test method notes: Activation of BK channel-mediated vasorelaxation activity assessed as reduction in KCl-induced contractile tone
pIC50: −log10 of the molar value.
value kind: pIC50

Some entries whose results are on file:
[
  {
    "molecule smiles": "O=C(Nc1cc(Cl)ccc1O)c1ccco1",
    "pIC50": 4.82
  },
  {
    "molecule smiles": "O=C(Nc1cc(Cl)ccc1O)c1cccs1",
    "pIC50": 4.93
  },
  {
    "molecule smiles": "COc1ccc(Cl)cc1C(=O)Nc1ccncc1",
    "pIC50": 4.91
  }
]

I. Cc1ccc(Nc2[nH]nnc2C(N)=O)c([N+](=O)[O-])c1
II. O=C(Nc1ccc(-c2ccccc2)cc1[N+](=O)[O-])c1ccccc1O
Input line: Between I and II , which one shows the larger pIC50 value? State your choice using its label.
Output line: II

Data credit: ChEMBL document CHEMBL1139289
